test target: T1, human CD47 extracellular domain with a histidine- (HIS-) tag (Sino Biological, China) (human, UniProt Q08722 19-139)
T1 construct: extracellular domain; also called huCD47; huCD47 protein (Sino Biological, China 10161-H08H); not shown: histidine tag
experiment summary: competition ELISA on huCD47 after 10A; cross-hatched cell
quantity name: competition matrix cell (no name or unit printed)
Numbers only.

anti-CD47 AlivaMab antibody 85 (antibody, IgG1, V domains shown, Chimeric AlivaMab Mouse mAb from hybridoma: human V, CH1 and upper hinge, mouse middle hinge, CH2 and CH3, human kappa light chain; also called clone 85; mAb 85) VH: QVQLQESGPGLVKASETLSLTCTVSGGSISGYYWSWIRQPAGKGLEWIGRIYNSGSTNYNPSLKSRVTMSVDTSKNQFSLKLSSVTAADTAVYYCARQTYLDYWGQGTLVTVSS VL: DIQMTQSPSAMSASVGDRVTITCRASQGISIYLAWFQQKPGKVPKRLIYAASSLQSGVPSRFSGSGSGTEFTLTISSLQPEDFATYYCLQHNSYPLTFGGGTKVEIK : 83
anti-CD47 AlivaMab antibody 5 (antibody, IgG1, V domains shown, Chimeric AlivaMab Mouse mAb from hybridoma: human V, CH1 and upper hinge, mouse middle hinge, CH2 and CH3, human kappa light chain; also called clone 5; mAb 5) VH: QVQLQESGPGLVKPSETLSLTCTVSGGSISSYYWSWIRQPPGKGLEWIGYIYYSGSTNYNPSLKSRVTISVDTSKNQFSLKLSSVTAADTAVYYCARGKGGTDYWGQGTLVTVSS VL: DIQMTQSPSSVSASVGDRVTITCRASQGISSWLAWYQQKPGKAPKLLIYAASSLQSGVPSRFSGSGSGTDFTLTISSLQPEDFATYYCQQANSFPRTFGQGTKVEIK : 73

Each of the following entries comes with a recorded value; kindly state competition matrix cell (no name or unit printed) for each.
1. anti-CD47 AlivaMab antibody 161 (antibody, IgG1, V domains shown, Chimeric AlivaMab Mouse mAb from hybridoma: human V, CH1 and upper hinge, mouse middle hinge, CH2 and CH3, human kappa light chain; also called clone 161; mAb 161) VH: QVQLQESGPGLVKPSETLSLTCTVSGGSISSYYWSWIRQPPGKGLEWIGYIYYSGSTNYNPSLKSRVTISVDTSKNQFSLKLSSVTAADTAVYYCARSRYFDLWGRGTLVTVSS VL: DIQMTQSPSAMSTSVGDRVTITCRASQGISNFLAWFQQKPGKVPKRLIYAASSLQSGVPSRFSGSGSGTEFTLTISSLQPEDFATYYCLQHNSYPYTFGQGTKLEIK
2. anti-CD47 AlivaMab antibody 107 (antibody, IgG1, V domains shown, Chimeric AlivaMab Mouse mAb from hybridoma: human V, CH1 and upper hinge, mouse middle hinge, CH2 and CH3, human kappa light chain) VH: QVQLQESGPGLMKPSETLSLTCTVSGGSISSYYWTWIRQPPGKGLEWIGYIYYSGSTNYNPSLKSRVTISVDTSKNQFSLKLSSVTAADTAVYYCARGRGALTAWGQGTLVTVSS VL: DIQLTQSPSFLSASVGDRVTITCRASQDIGSYLAWCQQKPGKAPKLLIYAASTLQGGVPSRFSGSGSGTEFTLTISSLQPEDFATYYCQQLNSYPLTFGGGTKVEIK

1: 89; 2: 85
